Hey, just so you know, these numbers are from ChEMBL document CHEMBL1255187.

- measurement target: Protein farnesyltransferase (Homo sapiens, UniProt P49354+P49356)
- test: Inhibition of human farnesyltransferase assessed as incorporation of [3H]FPP into H-Ras-CVLS
pIC50: −log10 of the molar value.
measured endpoint: pIC50

a = Cn1cncc1CN(CCN(CC1CCCCC1)S(=O)(=O)c1ccccn1)c1ccc(C#N)cn1
b = Cn1cnc(S(=O)(=O)N(CCN(Cc2cncn2C)c2ccc(C#N)cn2)CC2CCN(c3ncccn3)CC2)c1
[ask] Which of the two items, a and b , has the greater recorded pIC50? Provide the label of your selected option as the answer.
[reply] b
(b: 6.96, a: 6.46)

1 = Cn1cnc(S(=O)(=O)N(CCN(Cc2cncn2C)c2ccc(C(=O)OC(C)(C)C)cc2)Cc2ccccc2)c1
2 = Cn1cnc(S(=O)(=O)N(CCN(Cc2cncn2C)c2ccc(C#N)cc2)CC2CC2)c1
3 = Cn1cncc1CN(CCN(Cc1ccccc1)S(=O)(=O)c1ccccn1)c1ccc(C#N)cc1
4 = Cn1cnc(S(=O)(=O)N(CCN(Cc2cncn2C)c2ccc(C#N)cc2)Cc2ccncc2)c1
5 = Cn1cnc(S(=O)(=O)N(CCN(Cc2cncn2C)c2ccc(C#N)c(F)c2)CC2CCN(c3ncccn3)CC2)c1
[ask] Put the items in order so that reported pIC50 rises from first to last. Response field: labels, in requested order.
[reply] 1, 2, 5, 4, 3
